Taken from PubChem BioAssay (NCI).

test: NCI Yeast Anticancer Drug Screen. Data for the mec2-1 strain (AID 157); settings: S. cerevisiae mec2-1 strain, at 50.0 µM (retest, dose inferred, filed as 5.0)
This is part of a sample that, as a whole, favours compounds with a hit. Of some 79,000 tested, about 15% had one in any assay. The source made the active and inactive calls. No stated cut-off is given here; in the data, active means growth inhibition above about 70%; inactive means the rest.
The reply should name one outcome from active, inactive

Cc1cc(=Nc2ccc3c(c2)c(N)cc(C)[n+]3C)nc(N)n1C : active
O=[N+]([O-])c1ccc(/C=N/O)o1 : active
CCCCCCCCCCCCO : inactive
Cc1ccc(NC(=S)SCc2ccc(Cl)cc2)cc1Cl : active
C=CCCCCn1c2ccccc2c2c(C)c3c[n+](C)ccc3c(C)c21 : active

Please indicate how the test categorized CN(NC(=O)/C(=C/c1cc(Cl)cc(Cl)c1O)NC(=O)c1ccccc1)c1cnn(-c2ccccc2)c(=O)c1Cl .
inactive

Continue with O=C(CCCO)N/N=C\c1ccc([N+](=O)[O-])s1
inactive

Again, but for O=C(O)c1ccc(CSc2ccc(Cl)cc2)cc1
inactive

Now consider CC(C)=CC(=O)OC(CCCc1ccccc1)c1ccc2c(c1)OCO2 (stereo unspecified) .
inactive

O=C(CC(C(=O)O)c1c[nH]c2ccccc12)c1ccccc1 (stereo unspecified) , same question.
inactive

# iterate: C/C(=C/CC1CCC2C3=CCC4CC(O)CCC4(C)C3CCC12C)C(C)C(C)C (stereo unspecified)
active

###

assay: NCI Yeast Anticancer Drug Screen. Data for the mlh1 rad18 strain (AID 175); conditions: S. cerevisiae mlh1 rad18 strain growth inhibition; at 5.0 µM (retest, dose inferred, filed as 0.5)
The panel holds about 79,000 compounds, 15% with a hit somewhere; the sample as a whole holds those more often. Active and inactive are the calls of the source. Cut-off read from the data, not from the text of the source: active = growth inhibition above about 70%; inactive = the rest.
Hi! Could you answer with just one of these? active, inactive

Look over these answered cases.
CCCCNCCC(SSSC(CCNCCCC)c1ccc(Cl)cc1)c1ccc(Cl)cc1 (stereo not given) : inactive
Cc1ccc(-c2ccccc2)n1-c1cc(Cl)ccc1O : inactive
COC(=O)C1C(c2ccccc2)=N[C@@H](c2ccccc2)[C@H]1C(=O)OC (stereo not given in full) : inactive
COCCNC(=O)C1C(=O)N(CCOC)C(=O)/C1=N/N (stereo not given) : inactive
O=C(c1ccccc1)c1cccc2ccccc12 : inactive

Shift focus to the following entry.
Tell me the recorded outcome of this test for CC1SC(c2ccc(Cl)cc2)N2C(=O)C(C)SC(c3ccc(Cl)cc3)N2C1=O (stereo not given) .
active

###

For each entry below, report its growth inhibition value.
test: NCI Yeast Anticancer Drug Screen. Data for the mec2-1 strain (AID 157); conditions: S. cerevisiae mec2-1 strain, at 5.0 µM (retest, dose inferred, filed as 0.5), stronger effect = higher value
This is part of a sample that, as a whole, favours compounds with a hit. Of some 79,000 tested, about 15% had one in any assay.
One number for each entry, in %.

Examples from the recorded data:
CCCCCOC(=S)SSSC(=S)OCCCCC : 44
CN(C)S(=O)(=O)c1cc(Cl)ccc1NN : -44
COc1ccc2ccccc2c1/C=C/C(=O)c1ccccc1 : 7
CSC(=S)NN=C(c1ccccn1)c1ccccn1 : 24
C=C1C(=O)OC2/C=C(\C(=O)O)CC/C=C(\C)CC(OC(=O)/C=C(\C)CC)C12 (configuration not stated) : -5

Batch request: growth inhibition per item, same order as input.
1. CCN(CC)C(=S)n1c(=S)nc(N(CC)CC)sc1=S
2. OCCN=C1c2ccccc2C2C(c3ccccc31)C1c3ccccc3C(=NCCO)c3ccccc3C21 (configuration not stated)
3. Cc1nc(Cl)c(C#N)c(C)c1[N+](=O)[O-]
4. NC(=S)C(=S)N/C=C(/c1ccc(Cl)cc1)S(=O)(=O)Cc1ccc(Cl)cc1

1. 42
2. -4
3. -31
4. -17
